Test system: rabbit reticulocyte lysate
Format: biochemical
condition label: rabbit reticulocyte lysate, poly(A)-tailed firefly luciferase RNA, cap I structure
measured metric: average relative translation efficiency (%)
Express your answer in %, writing the number without its unit.

Exercise: Query (molecule): CO[C@H]1[C@@H](O)[C@H](n2cnc3c(=O)[nH]c(N)nc32)O[C@@H]1COP(=O)(O)OP(=O)(O)OP(=O)(O)O [3′-OMe-GTP, 3′-O-methylguanosine-5′-triphosphate] ; field requested: average relative translation efficiency
Key: 137

Exercise: Query (molecule): Nc1nc2c(ncn2[C@H]2C[C@H](O)[C@@H](COP(=O)(O)OP(=O)(O)OP(=O)(O)O)O2)c(=O)[nH]1 [2′-dGTP, 2′-deoxyguanosine-5′-triphosphate] ; field requested: average relative translation efficiency
Key: 128

Exercise: Query (molecule): Nc1nc2c(ncn2[C@@H]2O[C@H](COP(=O)(O)OP(=O)(O)OP(=O)(O)O)C[C@H]2O)c(=O)[nH]1 [3′-dGTP, 3′-deoxyguanosine-5′-triphosphate] ; field requested: average relative translation efficiency
Key: 98
